# Tested On: TSPO (Rattus norvegicus)
# Assay Name: Radiometric TSPO binding assay, [3H]PK11195 displacement in kidney lysate
# Set-up: species or system athymic nude rat
# Experimental Conditions: read-out: Kidney Ki, low-affinity binding (mixed affinity binding), versus [3H]PK11195, Ki ± S.E.M., low-affinity component
Endpoint Name: Ki (nM)
The reply should contain only the number, in nM.

// query Recall the recorded Ki for "CN(C)C(=O)Cc1nn(-c2ccc(F)cc2)c(=O)c2c1c1ccc(Cl)cc1n2C" with TSPO (Rattus norvegicus) and state it.
// result 0.969

###

# Tested On: TSPO (Rattus norvegicus)
# Assay Name: Radiometric TSPO binding assay, [3H]PK11195 displacement in heart lysate
# Set-up: species or system athymic nude rat
# Experimental Conditions: read-out: Heart Ki, versus [3H]PK11195, Ki ± S.E.M., triplicate
The following compounds are shown together with reported pKi values.
pKi is defined as minus the log10 of a concentration measured in mol/L.

// query Which pKi is reported for this compound? "CN(C)C(=O)Cc1nn(-c2ccccn2)c(=O)c2c1c1ccc(Cl)cc1n2C"
// result 8.31

Now, please, on to the next compound.
// query Fill in the blank: the reported pKi of "CN(C)C(=O)Cc1nn(-c2cccc([N+](=O)[O-])c2)c(=O)c2c1c1ccc(Cl)cc1n2C" is ____.
// result 11.93
